assay_comment: PAMPA permeability
Format: in vitro ADME
condition_details: pH 7.4; PAMPA, pH7.4; read-out: pH7.4 Papp x 10^-6
metric_name: Papp (×10⁻⁶ cm/s)
Give bare numbers, in ×10⁻⁶ cm/s.

# count of solved cases: 3
1. CC[C@H](CO)Nc1nc(NCc2ccc(N3CCOCC3)cc2)c2ncn(C(C)C)c2n1 | 41
2. CC[C@H](CO)Nc1nc(NCc2ccc(C3CCCCC3)cc2)c2ncn(C(C)C)c2n1 | 12.7
3. CC[C@H](CO)Nc1nc(NCc2ccc(C3=CCOCC3)cc2)c2ncn(C(C)C)c2n1 | 40.2

Now look at this entry.
## Input Entry "CC[C@H](CO)Nc1nc(NCc2ccc(-c3ccco3)cc2)c2ncn(C(C)C)c2n1" has what Papp?
## Output 33.7

====

Give Remaining Cyclin K (%) for every item shown.
Tested on: Cyclin K
assay_comment: Cyclin K levels by Western blot after single-concentration treatment
Format: cell-based, human
condition_details: HEK293T cells, 1 μM for 2 h, quantified from Western blots, mean ± SD, three independent experiments
Numbers only, in %.

1) CC[C@H](CO)Nc1nc(NCc2ccccc2)c2ncn(C(C)C)c2n1 [compound 2, reference compound] | 99
2) CC[C@H](CO)Nc1nc(NCc2ccc(-c3ccc(F)cn3)cc2)c2ncn(C(C)C)c2n1 [compound 6] | 42
3) CC[C@H](CO)Nc1nc(NCc2ccc(Br)cc2)c2ncn(C(C)C)c2n1 [compound 33] | 73

Now look at this entry.
## Input Provide value of Remaining Cyclin K (%) for this record tested with Cyclin K: CC[C@H](CO)Nc1nc(NCc2ccc(-c3ccccn3)cc2)c2ncn(C(C)C)c2n1 [compound 1, reference compound]
## Output 1

====

Test system: Cyclin K
assay_comment: Cyclin K levels by Western blot after single-concentration treatment
Format: cell-based, human
condition_details: HEK293T cells, 1 μM for 2 h, quantified from Western blots, mean ± SD, three independent experiments
Experimental: HEK293T human […] kidney cells were cultured in DMEM (Gibco/Life Technologies), containing 25 mM D-glucose, 4 mM L-glutamine, and 1 mM sodium pyruvate, and supplemented with 10% (v/v) FBS and 1% nonessential amino acids (Gibco/Life Technologies). […] Unedited blots containing the marker lane are available on request. Western blots were quantified using ImageJ. […] DC50 values were calculated from concentration–response curves using nonlinear regression fit to a 4-parameter curve by GraphPad Prism.
Please note: Remaining Cyclin K (%) exactly at 20% is 0.0. Only values below 20% get 1.0.

1. CC[C@H](CO)Nc1nc(NCc2ccc(N3CCNCC3)cc2)c2ncn(C(C)C)c2n1 | 0.0
2. CC[C@H](CO)Nc1nc(NCc2ccc(C3=CCCCC3)cc2)c2ncn(C(C)C)c2n1 | 0.0
3. CC[C@H](CO)Nc1nc(NCc2ccc(-c3cccc(C)n3)cc2)c2ncn(C(C)C)c2n1 | 1.0
4. C=Cc1ccc(CNc2nc(N[C@H](CC)CO)nc3c2ncn3C(C)C)cc1 | 0.0
5. CC[C@H](CO)Nc1nc(NCc2ccc(-c3ccoc3)cc2)c2ncn(C(C)C)c2n1 | 1.0

## Input # check: Remaining Cyclin K (%) < 20% for "CC[C@H](CO)Nc1nc(NCc2ccc(-c3cc(=O)cc[nH]3)cc2)c2ncn(C(C)C)c2n1"
## Output 0.0

## Input # check: Remaining Cyclin K (%) < 20% for "CC[C@H](CO)Nc1nc(NCc2ccc(C3=CCOCC3)cc2)c2ncn(C(C)C)c2n1"
## Output 1.0
